Reported values of IC50 for individual entries
- measuredOn: IDH1 mutant (R132H) (Homo sapiens, UniProt O75874, R132H)
- Sequence (O75874 whole entry R132H): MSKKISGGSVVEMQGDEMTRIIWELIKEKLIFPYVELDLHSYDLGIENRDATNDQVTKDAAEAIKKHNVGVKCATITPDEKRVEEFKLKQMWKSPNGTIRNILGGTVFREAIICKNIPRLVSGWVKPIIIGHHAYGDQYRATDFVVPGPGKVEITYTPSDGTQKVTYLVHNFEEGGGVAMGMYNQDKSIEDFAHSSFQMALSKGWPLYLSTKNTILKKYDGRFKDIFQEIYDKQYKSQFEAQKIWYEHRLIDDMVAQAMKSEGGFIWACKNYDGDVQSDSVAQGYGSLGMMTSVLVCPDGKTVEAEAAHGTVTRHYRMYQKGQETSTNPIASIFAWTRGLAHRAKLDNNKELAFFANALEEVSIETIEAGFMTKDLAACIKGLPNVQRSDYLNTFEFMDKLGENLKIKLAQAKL
- methodSummary: Mutant IDH1-R132H Fluorescence Assay (Resazurin based)
- particulars: 10 nM IDH1 R132H, 4 mM α-ketoglutarate, NADPH, 1.5 h at room temperature
Give the number; µM is assumed, so skip it.

- compound: "CC(C)[C@H]1COC(=O)N1c1ncnc(N[C@@H](C)c2ccccc2)n1 [Compound 1.37]"
  IC50 [µM]: 19.4
- compound: "CC(C)[C@H]1COC(=O)N1c1ncnc(N[C@@H](C)c2cn(-c3ccc(C(F)(F)F)cc3)cn2)n1 [Compound 1.5]"
  IC50 [µM]: 0.575
- compound: "Cc1nc(N[C@@H](C)c2ccc(Oc3ccccc3)cc2)nc(N2C(=O)OC[C@@H]2C)n1 [Compound 1.65]"
  IC50 [µM]: 2.65
- compound: "C[C@H](Nc1ncnc(N2C(=O)OC[C@@H]2c2ccccc2)n1)c1cn(-c2ccc(C(F)(F)F)cc2)cn1 [Compound 1.26]"
  IC50 [µM]: 3.04
- compound: "COc1nc(N[C@@H](C)c2ccc(Oc3ccccc3)cc2)nc(N2C(=O)OC[C@@H]2C(C)C)n1 [Compound 1.31]"
  IC50 [µM]: 0.486

Problem: Which value of IC50 has been reported for CC[C@H]1COC(=O)N1c1nc(C)nc(N[C@@H](C)c2ccc(Cc3ccccc3)cc2)n1 [Compound 1.95] in the records?
Solution: 2.64

Problem: Give its IC50 value. Item: CC[C@H]1COC(=O)N1c1nc(C)nc(N[C@@H](C)c2ccc(Sc3ccc(F)cc3)cc2)n1 [Compound 1.92]
Solution: 0.749
